These data points were gathered from the supplement of paper PMC9170038.

- Test system: MS2 coat protein
- assayMethodText: apparent KD of MS2 coat protein; higher = weaker reporter binding
- experimentalParameters: Eterna round: R107; input ligand: none
Could you please report measured apparent KD of MS2 coat protein for the items listed next?
One number for each entry, in nM.

Solved cases (2 shown):
biosequence	outputUnit	valueMeasured
GGUCUCUGGAGCGAUACCAGCUUAAAUGUACUGGCCAGGUACAUGAGGAUCACCCAUGUAAGCCCUUGGCAGCGCUCCAGAGACC [#1 Exclusion - Theophylline B Attempt #13 (HarryS)]	nM	13.9
GUUGUAUACUCGGCCGCCACUGAGAGAGUCAUGUGAACAUGAGGAUCACCCAUGUAAUAUAUAUACAGGACCGGGAGUGUGGUAA [4.H]	nM	16.8

What value of measured apparent KD of MS2 coat protein is listed for UGUAUGUGAUCUGAUACCAGUCCAACUGGUAAAACUUGAGGAUCACCCAAGUAAAAUUGGGACCCUUGGCAGCAGAUCGCAUACU ?
371

---

- Test system: MS2 coat protein
- assayMethodText: apparent KD of MS2 coat protein; higher = weaker reporter binding
- experimentalParameters: Eterna round: R107; input ligand: theophylline 20 uM
endpoint: apparent KD of MS2 coat protein
Value and unit, in that order.

Solved cases (5 shown):
biosequence	target	valueMeasured
ACAUGAGGAUCACCCAUGUCUGCCACUGAUACCAGCGGAAGCCAACGCCCUUGGCAGCAGAACAUGAGGAUCACCCAUGUAGGCA [Same State Theophylline A GF26]	MS2 coat protein	0.18 µM
ACGGAGAUUGCUAAAUGUUGGCGAGCGGAUACCAGCCUAUUAUUGGGCCCUUGGCAGCCGACAUGAGGAUCACCCAUGUAAACAA [Berere]	MS2 coat protein	0.0908 µM
UUGUUGUACGGAAGGAGCGUGUAAGAUUAAGAACAUGAGGAUCACCCAUGUUUUAAGGGAACACAGGUAGGUCGCCGUGUGGUGG [11.Q]	MS2 coat protein	0.02 µM
GAUUACAUGAGGAUCACCCAUGUAACUGAAGGAGCGGUAAUAAAGCCAGGUAGGUCGCAGAACGACAUGUGGUUCAUCCAUGUAA [#15 Exclusion - Arginine A]	MS2 coat protein	0.0469 µM
GGUUACUCUACGGCCGCCACUGGGCAUGUAAAUAACAUGAGGAUCACCCAUGUGGAUUAAAAUUACAGGACCGGGUAGUGUAACC [Tryptophan B 21]	MS2 coat protein	0.239 µM

Okay, now this sequence:
What value of measured apparent KD of MS2 coat protein is listed for UGCAAAUGAUGAGAUACCAGUUCAGUUAAAUACAUGAGGAUCACCCAUGUCAGGGAACUCAACCCUUGGCAGCUCGAUGCACUCA [theeternabot_sameState_MS2_Theo_B_43] ?
0.0567 µM

---

- Tested on: MS2 coat protein
- assayMethodText: apparent KD of MS2 coat protein; designed switch direction (-1 OFF switch, 1 ON switch): -1; higher = weaker reporter binding
- experimentalParameters: input ligand: none
endpoint: apparent KD of MS2 coat protein (nM)
Numbers only, in nM.

Solved cases (3 shown):
biosequence	outputUnit	apparent KD of MS2 coat protein
GGCCCGGGAGGAUAUACAUGAGGAUCACCCAUGUUGAGCUUGAGGAUCUUCGAGUUCGGUAGAAGGCCCGGGCC [-35.1, -32.9 kcal, 22% A, 1, 0] (Eterna round: R97, puzzle: Exclusion 3)	nM	27.2
AACAUCGUAGGAUAUUCGUGCUCAGACAUGAGGAUCACCCAUGUUUGGUGGGUUGGAGAAGGAGAAGGGCGAUGGA [EX5 #18] (Eterna round: R97, puzzle: Exclusion 5)	nM	92.8
GAAAAACAUGAGGAUCACCCAUGUAAGGAUAUGCUGAAAAACACGGAAAAAACGUGCAGCAGAAGGUACAAAAG [Mat - Exclusion 1 - Eli mod - D91] (Eterna round: R96, puzzle: Exclusion 1)	nM	71.1

Provide the reported apparent KD of MS2 coat protein of each entry below, same order.
1. AGCUAGUCAGGAUAUUCUAUUAAUUACAUGAGGAUCACCCAUGUGAAUGGACGAGGGUGUGAAGAAGGGACUAGCG [Omei Ex5 A17] (Eterna round: R97, puzzle: Exclusion 5)
2. GCUUGUAGAGGAUAUACAAGGGCCCGAGCGGCGAGAGCCGCACAUGAGGAUCACCCAUGUAGAAGGCUACUAUA [JL-ex2-4.21 ViennaUCT mod] (Eterna round: R97, puzzle: Exclusion 2)

1. 226
2. 237

Provide the reported apparent KD of MS2 coat protein of each entry below, same order.
1. UAAAACGCAGAGGAUAUAUCAGAUCAAAGCUGCAUAGAAGGCUGCACAUGAGGAUCACCCAUGUGGUCUUUAAU [Mat - Exclusion 6 - JL Mod - D1] (Eterna round: R97, puzzle: Exclusion 6)
2. AGGUCACAUGAGGAUCACCCAUGUGAGGAUAUUUACUCAAGAGCUUCGGCUCUCAGGUGAAGAAGGCGCAAUGA [EX1 #54] (Eterna round: R97, puzzle: Exclusion 1)
3. AGGGAAGAGUGAGGAUAUGGAAAUUUGGUGAGAACAUGAGGAUCACCCAUGUGGAAACAAGAAAAUUAGAAGGUAUAGGGAGGG [AK ExNG2-1.2] (Eterna round: R96, puzzle: Exclusion NG 2)
4. AAUUUACAUGAGGAUCACCCAUGUGAGGAUAUUGUAUAUUUAUAGAAAUGUGGGUGUGCAAGAAGGCACAUAGG [Alacar 2] (Eterna round: R97, puzzle: Exclusion 1)
5. AUAAUUAGAGGAUAUGGUACAUUGCACAUGAGGAUCACCCAUGUAAGGUGACCCAUGUCGCCAGAAGGCUGAUAUG [Eternabot (L2) Solution 46] (Eterna round: R97, puzzle: Exclusion 5)
6. GUACUGACAGGAUAUACAUGAGGAUCACCCAUGUCCUUAUGCUGACAAAAGUCAGCAAGUAGAAGGGUCUGUAC [Omei Ex3 Model Bachelor's Dilema v2] (Eterna round: R97, puzzle: Exclusion 3)
7. GGAUCGAGUGUGAGGAUAUGCAGGUCCUUGGAUCUGCAGAAGGCACAUGAGGAUCACCCAUGUGAUCAAGAUCC [Mat - Exclusion 4 - Eli Mod - D47] (Eterna round: R97, puzzle: Brourd's mod of Exclusion 4)
8. AAGAUACAUGAGGAUCACCCAUGUGAGGAUAUCAGCACGACCGUGAGGUCGAUAAGAAUGAGAAGGCACAAUGG [JL-ex1-4.51] (Eterna round: R97, puzzle: Exclusion 1)

1: 20.6; 2: 30; 3: 61.3; 4: 63.6; 5: 460; 6: 88.4; 7: 777; 8: 279
